# composite z-score per record follows
Test: COS7 lysate on small-molecule microarray, probe aHis, 635 nm (AID 1123);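 further: z-score combines 667nm fluorescence intensity with signal-to-noise per printed compound spot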
Conditions: COS7 cell lysate, fluorescence, higher = more signal

MOLECULE | ASSAY_READOUT | VALUE_MEASURED
CCOC(=O)[C@H](CC(C)C)NC(=O)CCC1CC(OC(=O)NCc2ccc3c(c2)OCO3)CC2(CCCC(COC(=O)NCCOc3ccccc3)O2)O1 (some centres not stated) | composite z-score | 1.22

Memo: COC(OC)[C@@H](C)[C@H](OC)[C@@H](C)[C@H](OC)c1ccccc1 , reported composite z-score: -0.729

Memo: COc1ccc(-c2cnnc(CCCn3ccnc3-c3ccccc3)n2)cc1 , reported composite z-score: 0.0412

Memo: CCCNC(=O)OC[C@H]1O[C@H](CCON=C[C@@H](C)[C@H](OCc2ccccc2)C(C)C)C=C[C@@H]1Oc1ccc(OC)cc1 , reported composite z-score: 0.775

Memo: COC(=O)[C@@H]1CC[C@H](C)[C@@H](c2ccc(C)cc2)N1C(=O)c1ccc(C=NOC[C@@H](O)[C@H]2O[C@@H]3OC(C)(C)O[C@@H]3[C@H]2O)cc1 , reported composite z-score: 0.424

Memo: CCOC(=O)CCN1C(=O)[C@H]2[C@H]3[C@H](O)[C@H](O)CC(=NOCC=C(C)CCC=C(C)C)[C@@H]3CC[C@H]2C1=O , reported composite z-score: 0.0888

Memo: C=CC[C@@H]1C=C[C@H](ON=CC[C@@H]2C=C[C@H](OC(C)=O)[C@@H](COC(C)=O)O2)[C@@H](CO)O1 , reported composite z-score: 0.312

Memo: O=C1[C@H]2[C@H]3[C@H](O)[C@H](O)CC(=NO[C@@H]4O[C@H](CO)[C@@H](O)[C@H](O)[C@H]4O)[C@H]3CC[C@H]2C(=O)N1C[C@@H]1CCCO1 , reported composite z-score: -0.686

Memo: COC(=O)C(C(=O)OC)C1CCCC(=O)C1 (configuration not stated) , reported composite z-score: 0.214

Memo: CC(C)CON=C1C[C@@H](O)[C@@H](O)[C@@H]2[C@@H]3C(=O)N(Cc4ccccc4)C(=O)[C@@H]3CC[C@H]12 , reported composite z-score: 0.211

Memo: CC#CCOCCC=C1c2ccccc2[C@@H](OC)[C@@H]1C , reported composite z-score: -0.336

Memo: CCOC(=O)[C@H](CC(C)C)NC(=O)CCC1CC(OC(=O)NCCc2ccc(F)cc2)CC2(CCCC(COC(=O)NCCCN3CCCC3=O)O2)O1 (some centres not stated) , reported composite z-score: 0.619

Memo: COc1ccc(O[C@H]2C=C[C@@H](c3ccccc3)O[C@@H]2CO)cc1 , reported composite z-score: -0.209

----------
Assay: small-molecule binders of probe aInhba, primary screen, biochemical, small-molecule microarray, 635/667 nm fluorescence (AID 1148);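 further: score merges 667nm spot fluorescence with signal-to-noise for antibody binding to printed compounds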
Settings: higher = more signal
# composite z-score per record follows
Give the value as a plain number.

COMPOUND | ASSAY_READOUT | VALUE_MEASURED
CCOC(=O)[C@H](Cc1ccccc1)NC(=O)CCC1CC(OC(=O)NCc2ccc3c(c2)OCO3)CC2(CCCC(COC(=O)NCCCN3CCCC3=O)O2)O1 (stereo partly specified) | composite z-score | -0.0736
COC(=O)CC=C[C@@H](C)[C@@H](C=NOC[C@@H](O)COCc1ccco1)NS(=O)(=O)c1ccc(C)cc1 | composite z-score | -0.209
CCN1C(=O)[C@H]2[C@H]3[C@H](O)[C@H](O)CC(=NNC(=O)OCc4ccccc4)[C@H]3CC[C@H]2C1=O | composite z-score | -0.0719
CC(=O)OC[C@H]1O[C@@H](ON=C(C)C)[C@H](OC(C)=O)[C@@H](OC(C)=O)[C@@H]1OC(C)=O | composite z-score | -0.0695
COc1ccc2c(c1)O[C@@H](c1cccc(C(F)(F)F)c1)[C@H](O)C2=O | composite z-score | -0.0645
CC(C)CON=C1C[C@@H](O)[C@@H](O)[C@@H]2[C@@H]3C(=O)N(C(C)(C)C)C(=O)[C@@H]3CC[C@@H]12 | composite z-score | -0.261
CC(CCN1CCCc2nc(C)c(C)cc21)=NO[C@H](C)c1cn([C@H](CO)Cc2ccccc2)nn1 | composite z-score | 0.0487
COc1ccc(O[C@H]2C=C[C@@H](c3ccccc3)O[C@@H]2CON=C(C)CCN2CCCc3nc(C)c(C)cc32)cc1 | composite z-score | -0.0079
CC(C)C(=O)N[C@H]1CCCN1C(=O)C=Cc1ccccc1 | composite z-score | 0.0173
O=C1C[C@H](c2ccccc2)[C@H](c2ccc(Br)cc2)O1 | composite z-score | -0.128

Memo: CC(=O)OC[C@H]1O[C@H](CCON=C(C)C)C=C[C@@H]1OC(C)=O , reported composite z-score: -0.038

Memo: CCN1C(=O)[C@H]2[C@H]3[C@H](O)[C@H](O)CC(=NO[C@H](C)c4cn([C@H](CO)Cc5ccccc5)nn4)[C@@H]3CC[C@H]2C1=O , reported composite z-score: -0.105

Memo: O=C1[C@H]2[C@H]3[C@H](O)[C@H](O)CC(=NOC[C@@H](O)COCc4ccco4)[C@@H]3CC[C@H]2C(=O)N1C1CCCCC1 , reported composite z-score: -0.195

Memo: CC(C)(C)N1C(=O)[C@H]2[C@H]3[C@H](O)[C@H](O)CC(=NOC[C@@H](O)COCc4ccco4)[C@H]3CC[C@H]2C1=O , reported composite z-score: -0.0279

Memo: CC(CCN1CCCCc2nc(C)c(C)cc21)=NOC[C@@H](O)[C@H]1O[C@@H]2OC(C)(C)O[C@@H]2[C@H]1O , reported composite z-score: -0.248

Memo: C[C@H]1CC[C@@H](C(=O)O)N[C@@H]1c1cccc(N2CCCC2=O)c1 , reported composite z-score: -0.134

----------
Experiment: basal S. cerevisiae growth modulation, no modifier, primary screen, OD600, strain BY4716, 24 h, basal condition (AID 1173)
Details: OD600, 24 h, higher = more signal, called active from +8 up or from −8 down
# z-score per record follows
Give the value as a plain number.

For orientation, consider the following solved cases.
COMPOUND | z-score
C[C@]12CCC3c4ccc(OCC5CO5)cc4CCC3C1CC[C@@H]2O (some centres undefined) | -3.59
CO[C@H]1COC(=O)CC=C[C@H](C)[C@H](OC)COC(=O)[C@@H](C)NC(=O)CC=C[C@@H]1C | -1.17
CC(CCN1CCCCc2nc(C)c(C)cc21)=NO[C@@H](C)c1cc(-c2c(C)cc(C)cc2C)no1 | -6.11

Now for another entry.
Memo: COc1ccc(O[C@H]2C=C[C@@H](c3ccccc3)O[C@@H]2CON=C2c3cc(OC)ccc3O[C@H](c3cccc(OC)c3)[C@H]2O)cc1 , reported z-score: 0.311

----------
Test: PSAC antagonists in infected red cells, primary screen, cell-based, P. falciparum Indochina, OD700, 1 h (AID 1154)
Conditions: P. falciparum Indochina infected RBC osmotic lysis, higher = more signal, called active from +8 up or from −8 down
Label scheme for z-score: lower than 1 is N, 1 and above is Y.

Example entries begin here.
COMPOUND | CLASS_NAME
O=C1CCCC=C1C(O)COCc1ccccc1 (configuration not stated) | N
COc1ccc(OC[C@@H](CO)OC)cc1 | N
CCOC(=O)NN=C1C[C@@H](O)[C@@H](O)[C@@H]2[C@@H]3C(=O)N(CC)C(=O)[C@@H]3CC[C@H]12 | N
CC(C)CON=C1C[C@@H](O)[C@@H](O)[C@@H]2[C@@H]3C(=O)N(C(C)(C)C)C(=O)[C@@H]3CC[C@@H]12 | N
CC(C)CON=C1C[C@@H](O)[C@@H](O)[C@@H]2[C@@H]3C(=O)N(Cc4ccccc4)C(=O)[C@@H]3CC[C@H]12 | Y
CCOC(=O)[C@H](Cc1ccccc1)NC(=O)CCC1CC(OC(=O)NCc2cccc3ccccc23)CC2(CCCC(COC(=O)NCC3CCCCC3)O2)O1 (some centres not stated) | Y
CC(C)C(=O)N[C@H]1CCCN1C(=O)C=Cc1ccccc1 | Y
C[C@@H]1CC[C@H]2C(=O)OC(Cc3ccccc3)CN2[C@H]1c1ccc(Br)cc1 (some centres not stated) | Y

Enquiry: Hi team, for C#CCCCON=C1[C@H]2CCn3c(=O)n([C@@H](CC)c4ccccc4)c(=O)n3[C@H]2[C@H](O)[C@@H]2O[C@H]12 , is the recorded z-score at or above 1?
Return: N

Enquiry: Hi team, for CO[C@@H]1COC(=O)[C@H](CCSC)NC(=O)CC=C[C@@H](C)COC(=O)[C@@H]2CCCN2C(=O)CC=C[C@H]1C , is the recorded z-score at or above 1?
Return: N

Enquiry: Hi team, for CC(=O)OC[C@H]1O[C@H](C#CCC2CCCCC2)C=C[C@@H]1OC(C)=O , is the recorded z-score at or above 1?
Return: Y

Enquiry: Hi team, for O=C1C2=CC[C@H]3C(=O)N(C4CCCCC4)C(=O)[C@H]3[C@H]2[C@H](O)[C@@H]2O[C@H]12 , is the recorded z-score at or above 1?
Return: N

Enquiry: Hi team, for COc1ccc(OC[C@H]2CN3[C@@H](CC[C@@H](C)[C@@H]3c3ccc(Br)cc3)C(=O)O2)cc1 , is the recorded z-score at or above 1?
Return: Y

Enquiry: Hi team, for CON=C(C)CCN1CCCc2nc(C)c(C)cc21 , is the recorded z-score at or above 1?
Return: Y

Enquiry: Hi team, for CC(CCN1CCc2nc(-c3ccccc3)c(-c3ccccc3)cc2C1)=NOC(C)CN1CCCc2nc(C)c(C)cc21 (configuration not stated) , is the recorded z-score at or above 1?
Return: Y

Enquiry: Hi team, for COC(=O)[C@H](C)NC(=O)CCC1CC(OC(=O)NCc2cccc3ccccc23)CC2(CCCC(COC(=O)NCCOc3ccccc3)O2)O1 (some centres not stated) , is the recorded z-score at or above 1?
Return: Y

Enquiry: Hi team, for COc1ccc(COC(=O)NN=C2C[C@@H](O)[C@@H](O)[C@@H]3[C@@H]4C(=O)N(C[C@@H]5CCCO5)C(=O)[C@@H]4CC[C@H]23)cc1 , is the recorded z-score at or above 1?
Return: Y
